Origin of the recorded values: patent US12686690B2

Target Or Test System: hOX2R (Homo sapiens)
Construct: expressed in transfected cells; host or cells: CHO cells (G418 selection)
Sequence (O43614 whole entry): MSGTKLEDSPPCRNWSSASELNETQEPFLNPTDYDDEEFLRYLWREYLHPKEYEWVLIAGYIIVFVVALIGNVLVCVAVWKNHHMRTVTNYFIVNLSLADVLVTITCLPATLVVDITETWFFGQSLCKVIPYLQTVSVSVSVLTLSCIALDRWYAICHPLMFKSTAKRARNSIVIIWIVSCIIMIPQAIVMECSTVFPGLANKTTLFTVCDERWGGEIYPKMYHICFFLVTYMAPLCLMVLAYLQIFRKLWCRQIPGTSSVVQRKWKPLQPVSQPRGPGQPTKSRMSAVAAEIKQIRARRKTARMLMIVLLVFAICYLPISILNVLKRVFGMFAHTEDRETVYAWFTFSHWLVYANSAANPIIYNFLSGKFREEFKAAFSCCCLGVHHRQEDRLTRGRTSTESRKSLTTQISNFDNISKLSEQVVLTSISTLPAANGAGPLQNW
Assay Name: hOX2R IPone assay (orexin receptor agonism)
Type: cell-based
Condition Description: maximal activation, IPone readout
As shown below, each of these molecules has a reported hOX2R_Ipone max %act value.
The response must be a number in % with no trailing unit.

[in] Query (molecule): CCN1C(=O)N[C@@H](CCC(F)(F)F)C/C=C\COc2nc(cn3ncnc23)-c2cc(ncc2OC)C1C(F)(F)F (some centres unmarked) ; field requested: hOX2R_Ipone max %act
[out] 98.8

[in] Query (molecule): CCN1C(=O)N[C@@H](CCC(F)(F)F)CCCCCOc2cc(cc3ccnn23)-c2nc(cnc2OC)C1C (single isomer, unassigned) [Example 80B] ; field requested: hOX2R_Ipone max %act
[out] 99.8

[in] Query (molecule): CCC1CCCCCOc2nc(cn3ccnc23)-c2cc(ncc2OC)[C@@H](C)N(CC)C(=O)N1 (single isomer, unassigned) [Example 52B] ; field requested: hOX2R_Ipone max %act
[out] 99.5

[in] Query (molecule): CCN1C(=O)N[C@@H](CCC(F)(F)F)CCCCCOc2nc(cn3ccnc23)-c2nc(ncc2C)[C@@H]1C [Example 93A] ; field requested: hOX2R_Ipone max %act
[out] 100.8

[in] Query (molecule): C[C@@H]1c2cc(c(F)cn2)-c2nc(c3nccn3n2)OCCCCCC(CCC(F)F)NC(=O)N1C1CC1 (some centres unmarked) ; field requested: hOX2R_Ipone max %act
[out] 104.8

[in] Query (molecule): CCN1C(=O)N[C@@H](CCC(C)(F)F)CCOCCOc2nc(cn3ncnc23)-c2ccnc(c2)[C@H]1C ; field requested: hOX2R_Ipone max %act
[out] 100.8

[in] Query (molecule): CCN1C(=O)NC(CC23CC(C2)C3)CCCCCOc2nc(nn3ccnc23)-c2cc(ncc2OC)[C@H]1C (some centres unmarked) ; field requested: hOX2R_Ipone max %act
[out] 100

[in] Query (molecule): CCN1C(=O)NC(CCC(F)F)CCCCCOc2cc(nn3ccnc23)-c2cc(ncc2F)[C@H]1C (some centres unmarked) ; field requested: hOX2R_Ipone max %act
[out] 100.5
